- Subject Of Test: T1, human IL-36R (on cells) (human, UniProt Q9HB29 20-575)
- T1 sequence (looked up): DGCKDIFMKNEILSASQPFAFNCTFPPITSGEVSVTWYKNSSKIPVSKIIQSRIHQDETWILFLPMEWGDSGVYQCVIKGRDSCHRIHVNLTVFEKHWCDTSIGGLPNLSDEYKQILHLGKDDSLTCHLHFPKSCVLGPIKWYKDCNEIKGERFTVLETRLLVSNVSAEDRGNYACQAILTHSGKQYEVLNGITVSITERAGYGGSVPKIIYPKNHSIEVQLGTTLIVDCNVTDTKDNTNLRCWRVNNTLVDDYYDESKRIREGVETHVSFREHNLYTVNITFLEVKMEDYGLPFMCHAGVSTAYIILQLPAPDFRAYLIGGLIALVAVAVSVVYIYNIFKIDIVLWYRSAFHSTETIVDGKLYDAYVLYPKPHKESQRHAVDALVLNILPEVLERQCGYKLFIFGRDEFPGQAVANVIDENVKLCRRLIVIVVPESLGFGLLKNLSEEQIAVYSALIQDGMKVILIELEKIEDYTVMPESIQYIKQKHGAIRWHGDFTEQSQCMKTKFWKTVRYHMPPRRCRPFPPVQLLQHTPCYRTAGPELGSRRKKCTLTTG
- Procedure Text: cell-based or functional assay
Parameter: EC50 (nM), HEK human IL-36R IL-8 luciferase reporter assay, 20 ng/ml hIL-36β. Scope: all listed entries.
Your answer should be a plain number; it is taken to be in nM.

For orientation, consider the following solved cases.
Hzd 5D3 (APE6060) (antibody, V domains shown, also called 5D3 Humanized) VH: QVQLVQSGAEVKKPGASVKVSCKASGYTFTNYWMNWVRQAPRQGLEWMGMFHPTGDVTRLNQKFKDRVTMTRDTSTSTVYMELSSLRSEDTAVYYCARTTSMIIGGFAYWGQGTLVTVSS VL: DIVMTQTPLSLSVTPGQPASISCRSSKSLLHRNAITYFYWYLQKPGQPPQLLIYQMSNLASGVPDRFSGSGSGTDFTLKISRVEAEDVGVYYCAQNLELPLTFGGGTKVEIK
0.24
Hzd 18D4 (APE7247) (antibody, V domains shown, also called APE6903; APE07247) VH: DVQFQESGPGLVKPSQTLSLTCTVTGYSITADFAWNWIRQPPGKGLEWIGYISYSGDTNYNPSLKSRVTITRDTSKNQFSLKLSSVTAADTAVYFCAIRGPYSFTYWGQGTLVTVSS VL: DIQMTQSPSSLSASVGDRVTITCRASQWINNYLNWYQQKPGKAPKLLIYYTSMLHSGVPSRFSPSGSGNDYTFTISSLQPEDIATYYCQQGHTLPWTFGGGTKVEIKR
0.114
Chimeric 5D3 (APE3849) (antibody, V domains shown) VH: QVQLQQSGPELVRPGASVRMSCKASDYTFTNYWMHWVKQRPGQGLEWIGMFDPSNSVTRLNQKFKDKATLNVDKSSNTAYIQFSSLTFEDSAVYYCARTTSMIIGGFAYWGQGTLVTVSS VL: DIVMTQAAFSNPVTLGTSASISCRSSKSLLHSNGITYFYWYLQRPGQSPQLLIYQMSNLASGVPDRFSGSGSGTDFTLRISRVEAEDVGIYYCAQNLELPLTFGAGTKLELK
1.3
Chimeric 1D9 (APE3798) (antibody, V domains shown) VH: QVQLQQSGPELVKPGALVKISCKASGFTFTSYDINWVRQRPGQGLEWIGWIYPGDGSTKYNEKFKGKATLTADKSSSTAYMQLSSLTSENSAVYFCTRSFYTMDYWGQGTSVTVSS VL: DIVMTQAAPSVPVTPGESVSISCRSSKSLLHSNGNTYLYWFLQRPGQSPQLLISRMSNLASGVPDRFSGSGSGTAFTLRISRVEAEDVGVYYCMQHLEYPFTFGSGTKLEIK
0.267

What measured EC50 (nM), HEK human IL-36R IL-8 luciferase reporter assay, 20 ng/ml hIL-36β goes with Hzd 5D3 (APE6155) (antibody, V domains shown, also called APE6917; APE06155) VH: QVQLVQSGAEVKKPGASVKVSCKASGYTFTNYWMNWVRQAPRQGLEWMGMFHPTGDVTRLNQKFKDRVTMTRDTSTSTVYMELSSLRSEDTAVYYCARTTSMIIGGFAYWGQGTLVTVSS VL: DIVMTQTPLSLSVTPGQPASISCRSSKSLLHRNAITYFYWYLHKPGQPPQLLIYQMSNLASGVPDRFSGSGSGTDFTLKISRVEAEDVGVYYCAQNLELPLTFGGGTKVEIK ?
0.22
